Origin of values: PubChem BioAssay AID720504

SYSTEM: Serine/threonine-protein kinase PLK1 (Homo sapiens) (UniProt P53350)
Sequence (P53350 whole entry, looked up, the tested form may be a part): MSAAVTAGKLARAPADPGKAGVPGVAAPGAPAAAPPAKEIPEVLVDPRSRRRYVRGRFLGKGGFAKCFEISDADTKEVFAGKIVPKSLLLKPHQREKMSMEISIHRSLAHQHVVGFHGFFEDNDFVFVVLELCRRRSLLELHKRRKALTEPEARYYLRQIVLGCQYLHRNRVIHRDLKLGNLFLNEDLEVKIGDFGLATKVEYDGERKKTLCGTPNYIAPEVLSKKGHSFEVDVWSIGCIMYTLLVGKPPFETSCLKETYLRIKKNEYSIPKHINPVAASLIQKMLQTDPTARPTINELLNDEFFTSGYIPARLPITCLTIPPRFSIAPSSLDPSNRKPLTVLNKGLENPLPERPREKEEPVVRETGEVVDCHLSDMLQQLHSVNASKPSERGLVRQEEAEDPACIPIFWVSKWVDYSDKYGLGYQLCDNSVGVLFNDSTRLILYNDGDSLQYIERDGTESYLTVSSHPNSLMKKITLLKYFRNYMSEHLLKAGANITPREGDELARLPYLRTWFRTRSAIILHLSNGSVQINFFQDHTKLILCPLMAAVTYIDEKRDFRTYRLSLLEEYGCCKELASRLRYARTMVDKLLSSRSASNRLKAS
EXPERIMENT_DESCRIPTION: qHTS for Inhibitors of PLK1-PDB (polo-like kinase 1 - polo-box domain): Primary Screen; also: nearly all actives have a fitted effect of over 65% in size; as to max response, negative = inhibition: series mostly up to about 57 µM; % is scaled to controls: 0 for no effect and ±100 for the full control effect
RUN_CONDITIONS: Plk1 PBD binding of FITC phosphopeptide, fluorescence polarization
Out of some 360,000 compounds screened, about 10,000 (2.8%) were called active. Another 4% or so got no clear call; they are omitted. Many of the other results were omitted from the sample, so actives are more common in it than they were.
READOUT_KIND: max response, negative = inhibition (%)
Quick reminder: number only, in %, skip the unit.

Could you tell me which max response, negative = inhibition is on file for CCOC(=O)C1(CCOc2ccccc2)CCN(Cc2cc(OC)cc(OC)c2)CC1 ?
-2.45

May I ask what max response, negative = inhibition has been recorded for CC1(C(=O)Nc2cccnc2)Cc2c(-c3ccccc3)ccnc2O1 (stereo unspecified) ?
-6.2

Quick check: max response, negative = inhibition of O=S(=O)(NC1CCCCC1N1CCCCC1)c1ccc(Cl)cc1 (stereo unspecified) ?
3.73

I have this compound here, COc1cc(C(=O)NCc2ccncc2)cc(Br)c1OCc1ccccc1 , and I need its recorded max response, negative = inhibition.
-15.6

What max response, negative = inhibition value was documented for this compound, C[C@H]1CCC(=O)N([C@H](CSc2ccccc2)Cc2ccccc2)CC1 ?
-3.56

What does the record list as max response, negative = inhibition for CC(=O)c1ccccc1NC(=O)C1CC(=O)N(c2ccc3c(c2)OCCO3)C1 (stereo unspecified) ?
7.84

* * *

What Potency was measured for each of the following?
SYSTEM: Serine/threonine-protein kinase PLK1 (Homo sapiens) (UniProt P53350)
EXPERIMENT_DESCRIPTION: qHTS for Inhibitors of PLK1-PDB (polo-like kinase 1 - polo-box domain): Primary Screen; also: nearly all actives have a fitted effect of over 65% in size; also: potency is read from the fitted curve at half-maximal effect
RUN_CONDITIONS: Plk1 PBD binding of FITC phosphopeptide, fluorescence polarization
The whole screen tested about 360,000 compounds, of which about 10,000 (2.8%) were called active. About 4% were inconclusive and are not listed. The list comes from a sample in which actives are over-represented; it also holds close analogues and randomly drawn compounds.

Sample Cc1oc2c(F)c(F)c(F)c(F)c2c1S(=O)(=O)Nc1cccc(C(F)(F)F)c1 — what was its Potency?
37.7 µM (active)

Any idea what its Potency is? The molecule is COc1ccc(N2C(=O)CC(Sc3n[nH]c(-c4ccc(C)cc4)n3)C2=O)cc1 (stereo not drawn)
18.9 µM (active)

Quick check: Potency of CCOC(=O)c1sc(=NC(=O)/C=C/c2cccs2)n(C)c1C ?
26.7 µM (active)

Look up Potency: CN(C)c1nc(Nc2ccc(Cl)c(Cl)c2)nc(N(C)C)n1
2.99 µM (active)

Looking for the measured Potency of Cc1nc(-c2ccccc2)sc1C(=O)/C=C/N(C)C , can you help?
29.9 µM (active)

Param item = CS(=O)(=O)C1=NN2C(=N)/C(=C\c3ccc(OCCOc4ccccc4)cc3)C(=O)N=C2S1 ; retrieve measured Potency.
26.7 µM (active)

Can you share its Potency? I mean this molecule: COC(=O)c1ccc(NC(=O)C23CC4CC(C2)CC(n2cnc(Cl)n2)(C4)C3)cc1
23.8 µM (active)

// returns reported Potency for input O=C(c1ccc[nH]c1=S)N1CCN(S(=O)(=O)c2ccc(Br)cc2Cl)CC1
26.7 µM (active)

Consider the molecule shown here: CCOC(=O)c1c(NC(=O)C2CC=CCC2C(=O)O)sc(C)c1CC (stereo not drawn) What is its recorded Potency?
26.7 µM (active)

// lookup Potency for Cc1cccc(NC(=O)c2nc(S(=O)(=O)Cc3ccccc3)ncc2Cl)c1
8.44 µM (active)

Give the measured Potency of COc1cc(/C=C/C(=O)OCC(=O)N2CCOCC2)ccc1OCC#N .
26.7 µM (active)

Return reported Potency; argument: CCn1cc(C(=O)N2CCN(C3CCCCC3)CC2)c2cc(OC)c(OC)cc2c1=O
10.6 µM (active)

Sample S=C(c1ccc(-c2ccccc2)o1)N1CCCCC1 — what was its Potency?
9.47 µM (active)

* * *

Exercise: for every item that follows, state its recorded max response, negative = inhibition.
SYSTEM: Serine/threonine-protein kinase PLK1 (Homo sapiens)
EXPERIMENT_DESCRIPTION: qHTS for Inhibitors of PLK1-PDB (polo-like kinase 1 - polo-box domain): Primary Screen; also: nearly all actives have a fitted effect of over 65% in size; as to max response, negative = inhibition: series mostly up to about 57 µM; % is scaled to controls: 0 for no effect and ±100 for the full control effect
RUN_CONDITIONS: Plk1 PBD binding of FITC phosphopeptide, fluorescence polarization
Among all 360,000 compounds or so, about 10,000 (2.8%) were called active. Not shown: some 4% with an inconclusive outcome. What follows is part of a selection rich in actives, with near analogues and random picks from the rest.
Give a bare numeral; the unit % is implied.

Quick one: max response, negative = inhibition for O=C(c1ccco1)N1CCN(C(=O)C2CC(c3ccc(Cl)c(Cl)c3)=NO2)CC1 (stereo not given) ?
-17

Look up max response, negative = inhibition for this compound: Cc1cc(Cl)ccc1-c1nc(NCCN(C)C)nc2ccsc12
-8.63

Look at this compound and give its reported max response, negative = inhibition. Cc1cccc(OCC(O)Cn2c(N3CCCCC3)nc3c2c(=O)[nH]c(=O)n3C)c1 (stereo not given)
-3.66

Looking for the measured max response, negative = inhibition of OC[C@H]1O[C@@H](c2nc(-c3nc(-c4ccc(F)cc4)no3)cs2)[C@H](O)[C@@H](O)[C@H]1O , can you help?
-9.06

Record request: max response, negative = inhibition value, item COc1cccc(CNc2nc3cc(-c4csc5ccccc45)sc3c(=O)n2C)c1
-2.77
